Tested on: IGROV1 ovarian
Assay: NCI tumour cell line growth inhibition, 48 h
So I've got a bunch of molecules here, and I need their TGI values.

These solved cases illustrate the format of a correct answer.
Molecule	TGI
CC(C)(C)C1=CC(=CC=C2C=CN(CCCCCCCCCCCO)C=C2)C=C(C(C)(C)C)C1=O	2.26 µM
CC(=O)O[C@@H]1C=C(C)[C@H](CBr)O[C@@]2(C)CC[C@H](Br)C(C)(C)[C@H]12	> 100 µM
CC[N+](C)(CC)Cc1ccccc1[N+](=O)[O-]	> 100 µM
COC1(OC)C2(Cl)CCC1(Cl)C(OC(C)=O)C2 (stereo unspecified)	> 100 µM
CCN(CC)C(=O)C/C(C)=N/NC(=O)c1ccncc1	> 100 µM
CCOC(=O)NC(Nc1ccc(S(=O)(=O)Nc2ncccn2)cc1)(C(=O)OCC)C(F)(F)F (stereo unspecified)	> 100 µM
COc1ccc(OC(=O)O[C@H]2[C@H](O[C@H]3[C@@H](O)COC(O[C@H]4C[C@H]5[C@@H]6CC=C7C[C@@H](O)CC[C@]7(C)[C@H]6CC[C@]5(C)[C@H]4[C@H](C)C(=O)CCC(C)C)[C@@H]3OC(C)=O)OC[C@@H](O)[C@@H]2O)cc1 (stereo partly specified)	18.2 µM
CN(C)CC(CN(C)C)c1ccccn1	> 100 µM
C[N+](C)(N)CCC[N+](C)(C)N	> 100 µM
O=c1[nH]c(=O)n(C2CC(O)C(CS)O2)cc1F (stereo unspecified)	> 100 µM

// for each molecule below, give its TGI
1. CC(=O)NCc1nc(C#N)c(N)o1
2. COC(=O)CCC(=O)NC1c2cccc3cccc(c23)Cn2c(=O)n(C)c(=O)n21 (stereo unspecified)

Response:
1. > 100 µM
2. > 100 µM

Provide the reported TGI of each entry below, same order.
1. CCOC(=O)C(Cl)(NC(=O)c1ccc(F)cc1)C(F)(F)F (stereo unspecified)
2. CC1CN=C(Nc2ccc(S(N)(=O)=O)cc2)S1 (stereo unspecified)

Response:
1: > 100 µM; 2: > 100 µM

* * *

Tested on: SR leukemia
Test: NCI tumour cell line growth inhibition, 48 h
I'd be grateful if you could share measured TGI for these entries.

Sample answers from the record:
Compound	TGI
O=C1C2=C(CC3C(C2)C3(Br)Br)C(=O)C2=C1CC1C(C2)C1(Br)Br (centres undefined)	> 100 µM
O=C(NCCCNC(=O)c1ccc2cc(O)c(O)cc2c1)c1ccc2cc(O)c(O)cc2c1	> 100 µM
CC(=O)c1ccc(NC(=O)/C(Cc2ccccn2)=N/NC(=O)C[N+](C)(C)C)cc1	> 100 µM

Here is another compound to look at.
Request: Please report the measured TGI for COc1cc2c(c(OC)c1OC)-c1ccc(SC)c(=O)cc1C(CC(=O)Oc1ccc([N+](=O)[O-])cc1)C2 (centres undefined)
Response: > 38 µM

* * *

Test system: EKVX NSCLC
Experiment: NCI tumour cell line growth inhibition, 48 h
Value Type: TGI

For orientation, consider the following solved cases.
Compound	TGI
Cc1oc2nc(N(C)C)nc(Cl)c2c1C	> 100 µM
C=C1CC[C@@]2(OC1)OC1C[C@H]3[C@@H]4CC=C5C[C@@H](O)CC(OC6OCC(OC(=O)[C@@H](O)[C@@H](C)CC)C(OC(C)=O)C6OC6OC(C)C(O)C(O)C6O)[C@]5(C)[C@H]4CC[C@]3(C)C1[C@@H]2C (stereo partly specified)	6.51 µM

Give me TGI for each of these compounds, listed below.
1. COc1ccc2c(c1)OCc1c-2oc2ccccc2c1=O
2. CC(C)(C)C1=CC(=CC=C2C=CN(CCCCCCCCCCCO)C=C2)C=C(C(C)(C)C)C1=O
3. CO/N=C(\C(=O)Nc1cncs1)c1csc(NC(c2ccccc2)(c2ccccc2)c2ccccc2)n1
4. COc1ccc(OC)c2c1C(=O)C(Cl)=C(N1CCN(CCOCCO)CC1)C2=O
5. O=C(CC(=O)N(C(=O)c1ccccc1)c1ccc(Cl)cc1)N/N=C\c1cc(N=Nc2ccccc2Cl)ccc1O

Response:
["> 100 µM", "5.61 µM", "> 10 µM", "35.5 µM", "> 100 µM"]
